Listing of entries alongside the reported Kd.
# subject of test: T1, PUF4 RNA-binding domain (Saccharomyces cerevisiae, UniProt P25339 537-888)
# T1 sequence: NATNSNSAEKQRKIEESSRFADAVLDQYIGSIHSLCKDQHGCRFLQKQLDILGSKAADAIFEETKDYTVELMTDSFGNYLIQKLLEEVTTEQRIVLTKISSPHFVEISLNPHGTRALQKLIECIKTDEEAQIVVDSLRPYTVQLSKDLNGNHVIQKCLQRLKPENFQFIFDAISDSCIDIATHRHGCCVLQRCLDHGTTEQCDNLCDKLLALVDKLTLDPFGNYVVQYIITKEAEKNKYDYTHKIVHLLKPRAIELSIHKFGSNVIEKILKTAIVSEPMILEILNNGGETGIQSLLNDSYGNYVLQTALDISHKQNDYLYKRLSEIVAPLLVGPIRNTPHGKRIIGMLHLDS
# assay method text: Mg; RNA-MaP; 20 mM Na-HEPES pH 7.4, 30 mM KOAc, 0.75 mM MgCl2, 0.1% Tween-20, 5% glycerol, 0.1 mg/mL BSA, 2 mM DTT; 25 C; 0.0125-409.6 nM protein
# run conditions: tags: N-His6-TEV cleaved; C-SNAP kept, Cy3B-labelled; label: tethered on chip by stalled RNA polymerase
measured metric: Kd (nM)

| binder | measured metric | unit text | bound type | value observed |
| --- | --- | --- | --- | --- |
| UCUCUUCCUAUAUAUAUUUCUCUU (ssRNA) [Id_ii_S1_P3E.3_K3.2_C3.2_[T-1C]_H3.2_A3.1_F3.1_T3.2_[A10T]] | Kd | nM | = | 673 |
| Ie_S2_P4E.1_K4.1_C4.1_H4.1_[+1CCTC]_A4.1_F4.1_T4.1 (ssRNA) RNA: UUUGAUUAAUAUGAUAUCGUUCUUUCUUCCUCGUAUAUUAUUCUUUCUCGAUAUCAUAUUAAUCUUU | Kd | nM | = | 5.67 |
| UCUCUUCUUAUAUUAUUAACUCUCUU (ssRNA) [Id_ii_S1_P5E.3_K5.2_C5.2_H5.2_A5.1_F5.1_T5.2_[T11A]_[A12C]] | Kd | nM | = | 476 |
| UCUCUUUAUAUAUAUUAGUUCUCUU (ssRNA) [Id_ii_S1_P4E.3_K4.2_C4.2_[C-2T]_[T-1A]_H4.2_A4.1_F4.1_T4.2] | Kd | nM | = | 9.8 |
| UCUCUUUAUAUUUUUAUCUCUU (ssRNA) [Ib_S1_P5E.1_K5.1_C5.1_H5.1_[G2A]_A5.1_[A7T]_F5.1_T5.1] | Kd | nM | = | 742 |
| ACAAACGGACACUAUACUACAAAC (ssRNA) [Id_ii_S3_P3E.4_K3.3_C3.2_[C-2G]_[T-1G]_H3.3_A3.1_F3.1_T3.2_[T9C]_[A10T]] | Kd | nM | = | 2160 |
| UCUCUUUGUAUCUCGAUCUCUU (ssRNA) [Ic_S1_P5E.1_K5.1_C5.1_H5.1_A5.1_[T6C]_[A7T]_F5.1_[T8C]_[T9G]_T5.1] | Kd | nM | = | 463 |
| Ib_S2_P4E.1_K4.1_C4.1_H4.1_A4.1_[T5A]_F4.1_[T8C]_T4.1 (ssRNA) RNA: UUUGAUUAAUAUGAUAUCGUUCUUUCUUGUAAAUCAUUCUUUCUCGAUAUCAUAUUAAUCUUU | Kd | nM | = | 58.5 |
| UCUCUUUGUACAGUCCUCUCUU (ssRNA) [Ic_S1_P5E.1_K5.1_C5.1_H5.1_A5.1_[T5C]_[T6A]_[A7G]_F5.1_[T9C]_[A10C]_T5.1] | Kd | nM | = | 13.5 |
| Ic_S2_P4E.1_K4.1_C4.1_H4.1_A4.1_[T7C]_F4.1_[T8A]_[A9T]_T4.1 (ssRNA) RNA: UUUGAUUAAUAUGAUAUCGUUCUUUCUUGUAUACAUUUCUUUCUCGAUAUCAUAUUAAUCUUU | Kd | nM | = | 16.4 |
| Ib_S2_P5E.1_K5.1_C5.1_H5.1_A5.1_[T5C]_F5.1_[T8A]_T5.1 (ssRNA) RNA: UUUGAUUAAUAUGAUAUCGUUCUUUCUUGUACUAAUAUUCUUUCUCGAUAUCAUAUUAAUCUUU | Kd | nM | = | 4.42 |
| Id_ii_S2_P5E.4_K5.3_C5.2_[T-1A]_H5.3_A5.1_F5.1_T5.2_[A12T] (ssRNA) RNA: UUUGAUUAAUAUGAUAUCGUUCUUUCUCAACACUUAUUAUUUUCUUUCUCGAUAUCAUAUUAAUCUUU | Kd | nM | > | 2300 |

Just for reference, paper PMC9352680 is where these values come from.
